These measurements were taken from patent EP1976513B1.

# assayed system: human serotonin reuptake transporter (Homo sapiens)
# Sequence (P31645 whole entry): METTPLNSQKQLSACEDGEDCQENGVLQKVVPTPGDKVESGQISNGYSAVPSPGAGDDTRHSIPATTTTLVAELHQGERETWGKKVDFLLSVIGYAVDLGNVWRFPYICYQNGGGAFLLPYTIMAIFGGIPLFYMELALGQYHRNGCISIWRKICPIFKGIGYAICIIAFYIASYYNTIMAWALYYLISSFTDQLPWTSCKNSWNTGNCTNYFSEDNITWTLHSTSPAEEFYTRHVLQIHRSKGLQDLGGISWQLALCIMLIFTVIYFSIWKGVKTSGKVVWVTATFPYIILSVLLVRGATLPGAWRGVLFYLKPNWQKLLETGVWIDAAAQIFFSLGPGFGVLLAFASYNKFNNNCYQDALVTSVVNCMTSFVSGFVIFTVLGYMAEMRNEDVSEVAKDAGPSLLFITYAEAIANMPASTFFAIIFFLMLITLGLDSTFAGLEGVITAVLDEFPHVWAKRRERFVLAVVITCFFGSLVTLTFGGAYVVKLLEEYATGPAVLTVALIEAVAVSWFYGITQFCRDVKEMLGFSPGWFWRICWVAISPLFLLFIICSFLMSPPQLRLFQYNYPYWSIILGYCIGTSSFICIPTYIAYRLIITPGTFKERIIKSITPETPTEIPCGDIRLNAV
# assay summary: cell-based
# protocol conditions: recombinant human serotonin transporter (SERT); read-out: Human IC50 (nM) hSERT
For each of the compounds below, state its IC50.
Answers are plain numbers, in nM.

The cases that follow already have their IC50 on record.
compound	assayed system	assay readout	readout value
CCC1(O)CCC(CN)(c2ccc(Cl)c(Cl)c2)CC1 (centres unmarked) [Compound 281]	human serotonin reuptake transporter (Homo sapiens)	IC50	256
NCC1(c2ccc(F)c3ccccc23)CCCCC1	human serotonin reuptake transporter (Homo sapiens)	IC50	753
CNCC1(c2ccc3ccccc3c2)CCC(O)(CF)CC1 (centres unmarked) [Compound 243]	human serotonin reuptake transporter (Homo sapiens)	IC50	26

We now examine a further compound.
Query string: Field request: IC50 | item: CNCC1(c2ccc(Cl)c(Cl)c2)CCC2(CC1)OCCO2
Result string: 469

###

# assayed system: human serotonin reuptake transporter (Homo sapiens)
# assay summary: cell-based
# protocol conditions: Human IC50 (nM) hSERT, recombinant human serotonin transporter (SERT)
Label 1 (yes) when IC50 < 1000 nM; otherwise 0 (no).

The examples below pair each entry with its known result.
molecule	class assignment
NCC1(c2ccc(C(F)(F)F)cc2)CCCCC1	0 (no)
CN(C)CC1(c2ccc(Cl)cc2Cl)CCCCC1	1 (yes)

Query string: # strict comparison: is reported IC50 < 1000 nM? input = NCC1(c2ccc3c(c2)OCO3)CCCCC1
Result string: 0 (no)

Query string: # strict comparison: is reported IC50 < 1000 nM? input = NCC1(c2ccc(Cl)c(Cl)c2)CCCC1
Result string: 0 (no)

Query string: # strict comparison: is reported IC50 < 1000 nM? input = CNCC1(c2ccc(C(F)(F)F)cc2)CCCCC1
Result string: 0 (no)

Query string: # strict comparison: is reported IC50 < 1000 nM? input = CNCC1(c2ccc(Cl)cc2Cl)CCCCC1
Result string: 0 (no)

Query string: # strict comparison: is reported IC50 < 1000 nM? input = NCC1(c2ccc(Cl)c(Cl)c2)CCC(O)C1 (stereo not drawn) [cis 167]
Result string: 0 (no)

Query string: # strict comparison: is reported IC50 < 1000 nM? input = CNCC1(c2ccc3c(c2)OCO3)CCCCC1
Result string: 0 (no)

Query string: # strict comparison: is reported IC50 < 1000 nM? input = NCC1(c2ccc(Cl)c(F)c2)CCCCC1
Result string: 0 (no)

###

# assayed system: human serotonin reuptake transporter (Homo sapiens)
# assay summary: cell-based
# protocol conditions: recombinant human serotonin transporter (SERT); read-out: Human IC50 (nM) hSERT
Where a name gives a salt, the structure may show the parent alone.
assay readout: IC50 (nM)
Answers are plain numbers, in nM.

The cases that follow already have their IC50 on record.
compound	IC50 / nM
NCC1(c2cccc(Cl)c2)CCCCC1 [Compound 28, hydrochloride]	4560
NCC1(c2ccc3ccccc3c2)CCC(O)CC1 (stereo not drawn) [Compound 208]	1990
NCC1(c2ccc3ccccc3c2)CCC(F)(F)CC1	61

Count: 6. Required value per item: IC50.
1. CN(C)CC1(c2ccc(Cl)c(Cl)c2)CCC(O)CC1 (stereo not drawn)
2. CC(N(C)C)C1(c2ccc3ccccc3c2)CCC(C)(O)CC1 (single isomer, unassigned) [234 E2]
3. NCC1(c2ccc3ccccc3c2)CCC(O)(CF)CC1 (stereo not drawn) [Compound 217]
4. NCC1(c2ccc3ccccc3c2)CCC(F)CC1 (stereo not drawn) [Compound 213]
5. CN(C)CC1(c2ccc3ccccc3c2)CCC(C)(O)CC1 (stereo not drawn)
6. NCC1(c2ccc3ccccc3c2)CCC(F)CC1 (stereo not drawn) [Compound 212]

Result string:
1. 674
2. 18
3. 47
4. 283
5. 69
6. 91
